test system: WaGa; assay: qHTS assay to identify novel small-molecules to repurpose for Merkel cell carcinoma treatment (AID 1296009); conditions: MCC and control cell lines, CellTiter-Glo viability, 72 h; series mostly up to 46 µM; note: nearly all actives have a fitted effect of over 60% in size
Inconclusive results are not listed. Active and inactive are the calls of the source. Calls come from the whole dose curve; as a rule, active = well fitted inhibition curve with a large enough effect; inconclusive = small, poorly fitted or top-dose-only effect; inactive = flat fitted curve, though single readings scatter.
The reply should be one of these categories: active, inactive

CON=C(C(=O)N[C@@H]1C(=O)N2C(C(=O)O)=C(Cn3ccc(=N)n3CCO)CS[C@H]12)c1csc(N)n1; inactive
COC(=O)[C@@H]1[C@H]2C[C@@H]3c4[nH]c5ccccc5c4CCN3C[C@@H]2CC[C@@H]1O; inactive

Inquiry: Returns: the outcome recorded for "COc1cc(C=CC(=O)CC(=O)C=Cc2ccc(O)c(OC)c2)ccc1O" in this assay.
Reply text: active

Inquiry: Returns: the outcome recorded for OC[C@H]1OC(O)C[C@@H](O)[C@H]1O (stereo not given in full) in this assay.
Reply text: inactive

Inquiry: Returns: the outcome recorded for "CC(Oc1ccc(O)cc1)(P(=O)(O)O)P(=O)(O)O" in this assay.
Reply text: inactive

====

experiment: qHTS Screen of the MIPE 4.0 Collection Against Ewings Sarcoma (EW8) (AID 1259255); details: EW8 Ewing sarcoma viability, CellTiter-Glo, 48 h; series mostly up to 45.8 µM; note: nearly all actives have a fitted effect of over 35% in size
Records with an inconclusive call do not appear. Active and inactive are the calls of the source. Calls follow the shape of the dose curve; as a rule, active = well fitted inhibition curve with a large enough effect; inconclusive = small, poorly fitted or top-dose-only effect; inactive = no such curve, though single readings can be large or run the other way.
The reply should be one of these categories: active, inactive

O=C(O)CCCCCC(=O)NN=C1CCCC1; inactive
C[C@H](NCc1ccc(OCc2cccc(F)c2)cc1)C(N)=O; active
O=C(O)C=Cc1ccc(Cn2ccnc2)cc1; inactive

Inquiry: Returns: the outcome recorded for "COc1ccc(Nc2cc(-c3cnc(N)nc3)nc(N3CCOCC3)n2)cn1" in this assay.
Reply text: active

Inquiry: Returns: the outcome recorded for "O=C(O)C[C@H](O)C[C@H](O)C=Cc1c(C2CC2)nc2ccccc2c1-c1ccc(F)cc1" in this assay.
Reply text: active

Inquiry: Returns: the outcome recorded for "C[C@@H](Cc1cc2c(c(C(N)=O)c1)N(CCCO)CC2)NCCOc1ccccc1OCC(F)(F)F" in this assay.
Reply text: inactive

Inquiry: Returns: the outcome recorded for "CON=C(C(=O)N[C@@H]1C(=O)N2C(C(=O)O)=C(Cn3ccc(=N)n3CCO)CS[C@H]12)c1csc(N)n1" in this assay.
Reply text: inactive

Inquiry: Returns: the outcome recorded for "CC(C)OC(=O)[C@H](C)N[P@](=O)(OC[C@H]1O[C@@H](n2ccc(=O)[nH]c2=O)[C@](C)(F)[C@H]1O)Oc1ccccc1" in this assay.
Reply text: inactive

Inquiry: Returns: the outcome recorded for "CCN(CC)Cc1ccc2cc(COC(=O)Nc3ccc(C(=O)NO)cc3)ccc2c1" in this assay.
Reply text: active

Inquiry: Returns: the outcome recorded for "CS[C@H]1SC[C@@H]2C(=O)N(C)[C@H](C(C)C)C(=O)OC[C@H](NC(=O)c3cnc4ccccc4n3)C(=O)N[C@H](C)C(=O)N(C)[C@@H]1C(=O)N(C)[C@H](C(C)C)C(=O)OC[C@H](NC(=O)c1cnc3ccccc3n1)C(=O)N[C@H](C)C(=O)N2C" in this assay.
Reply text: active

====

assay: qHTS of pediatric cancer cell lines to identify multiple opportunities for drug repurposing: Confirmatory screen for A673 cells (AID 1347110); details: A673 Ewing sarcoma cell viability; series mostly up to 45.9 µM;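 note: cells exposed to compound for 48 h before the viability read; nearly all actives have a fitted effect of over 65% in size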
Results filed as inconclusive are left out. Active and inactive are the calls of the source. Calls come from the whole dose curve; as a rule, active = well fitted cell-killing curve with a large enough effect; inconclusive = small, poorly fitted or top-dose-only effect; inactive = flat fitted curve, though single readings scatter.
The reply should be one of these categories: True = active, False = inactive

Inquiry: Returns: the outcome recorded for "CCN(CC)Cc1ccc2cc(COC(=O)Nc3ccc(C(=O)NO)cc3)ccc2c1" in this assay.
Reply text: False

Inquiry: Returns: the outcome recorded for "COC[C@H](NC(=O)c1cnc(C)s1)C(=O)N[C@@H](COC)C(=O)N[C@@H](Cc1ccccc1)C(=O)[C@@]1(C)CO1" in this assay.
Reply text: True

Inquiry: Returns: the outcome recorded for "CC(C)(O)Cn1c(NC(=O)c2ccc(-c3cn[nH]c3)s2)nc2cc(CN3CCOCC3)ccc21" in this assay.
Reply text: True

Inquiry: Returns: the outcome recorded for "O=S(=O)(O)CCSSCCS(=O)(=O)O" in this assay.
Reply text: False

Inquiry: Returns: the outcome recorded for "O=C(NC1CC1)c1cccc(-c2ccc3c(NC(=O)C4CC4)n[nH]c3c2)c1" in this assay.
Reply text: True

Inquiry: Returns: the outcome recorded for "CCCCC(=O)O[C@]1(C(=O)CO)[C@@H](C)C[C@H]2[C@@H]3CCC4=CC(=O)C=C[C@]4(C)[C@@]3(F)[C@@H](O)C[C@@]21C" in this assay.
Reply text: False

Inquiry: Returns: the outcome recorded for "O=C1NC(=O)C(=Cc2ccc3nccc(-c4ccncc4)c3c2)S1" in this assay.
Reply text: True

Inquiry: Returns: the outcome recorded for CC(C(C)N1CC(=O)NC(=O)C1)N1CC(=O)NC(=O)C1 (centres undefined) in this assay.
Reply text: False

Inquiry: Returns: the outcome recorded for CC(N[C@H]1CCCC[C@H]1NC(=O)c1ccc(Cl)cc1)c1cccc2ccccc12 (some centres undefined) in this assay.
Reply text: True

====

assay: Quantitative High-Throughput drug screen in 47 multiple myeloma cell lines against the NCATS MIPE library collection: OCIMY5_PLB cell viability assay (AID 1918988); settings: OCI-MY5 myeloma viability, ATP luminescence, 48 h; series mostly up to 45.8 µM; note: nearly all actives have a fitted effect of over 65% in size
Inconclusive results are not listed. The source made the active and inactive calls. Calls come from the whole dose curve; as a rule, active = well fitted cell-killing curve with a large enough effect; inconclusive = small, poorly fitted or top-dose-only effect, or effect the other way; inactive = no such curve, though single readings can be large or run the other way.
The reply should be one of these categories: y = active, n = inactive

Inquiry: Returns: the outcome recorded for "CC(C=CC=C(C)C=CC1=C(C)CCCC1(C)C)=CC=CC=C(C)C=CC=C(C)C=CC1=C(C)CCCC1(C)C" in this assay.
Reply text: y

Inquiry: Returns: the outcome recorded for "NS(=O)(=O)OC[C@@H]1C[C@@H](n2ccc3c(N[C@H]4CCc5ccccc54)ncnc32)C[C@H]1O" in this assay.
Reply text: y

Inquiry: Returns: the outcome recorded for "C[C@H]1COc2c(N3CCN(C)CC3)c(F)cc3c(=O)c(C(=O)O)cn1c23" in this assay.
Reply text: n

Inquiry: Returns: the outcome recorded for "C=CCNc1c(O)cc2c(O)c1C[C@@H](C)C[C@H](OC)[C@@H](O)[C@@H](C)C=C(C)[C@H](OC(N)=O)[C@@H](OC)C=CC=C(C)C(=O)N2" in this assay.
Reply text: y

Inquiry: Returns: the outcome recorded for "CCOC(=O)C=C[C@H](C[C@@H]1CCNC1=O)NC(=O)[C@@H](CC(=O)[C@@H](NC(=O)c1cc(C)on1)C(C)C)Cc1ccc(F)cc1" in this assay.
Reply text: n

Inquiry: Returns: the outcome recorded for "CC[C@]12C=CCN3CC[C@@]4(c5cc([C@@]6(C(=O)OC)C[C@H]7C[C@@H](C(C)(F)F)CN(Cc8c6[nH]c6ccccc86)C7)c(OC)cc5N(C)[C@H]4[C@@](O)(C(=O)OC)[C@H]1OC(C)=O)[C@@H]32" in this assay.
Reply text: y

Inquiry: Returns: the outcome recorded for "COc1cc2c(cc1OC)[C@@H]1C(=O)c3ccc4c(c3O[C@@H]1CO2)C=CC(C)(C)O4" in this assay.
Reply text: y

Inquiry: Returns: the outcome recorded for "CC(=O)ON=C1C(c2c(O)[nH]c3cc(Br)ccc23)=Nc2ccccc21" in this assay.
Reply text: y

Inquiry: Returns: the outcome recorded for "CN[C@H]1[C@@H](O)[C@@H]2O[C@@H]3O[C@H](C)CC(=O)[C@]3(O)O[C@@H]2[C@@H](NC)[C@H]1O" in this assay.
Reply text: y

====

test: Quantitative High-Throughput drug screen in 47 multiple myeloma cell lines against the NCATS MIPE library collection: OCIMY5_PLB cell viability assay (AID 1918988); settings: OCI-MY5 myeloma viability, ATP luminescence, 48 h; series mostly up to 45.8 µM; note: nearly all actives have a fitted effect of over 65% in size; note: potency is the fitted concentration of half-maximal effect
Results filed as inconclusive are left out. Activity calls are given as the source filed them. Calls come from the whole dose curve; as a rule, active = well fitted cell-killing curve with a large enough effect; inconclusive = small, poorly fitted or top-dose-only effect, or effect the other way; inactive = no such curve, though single readings can be large or run the other way.
QUANTITY NAME: Potency

Please review the following examples before continuing.
O=C(C=CC#Cc1cccc(NS(=O)(=O)c2ccccc2)c1)NO; 1.18 µM (active)
CC1=C(C(=O)Nc2cc3cn[nH]c3cc2F)C(c2ccc(Cl)cc2F)N=C(c2ccnc(Cl)c2)N1 (stereo not drawn); 16.6 µM (active)
CC(C=CC(=O)NO)=C[C@@H](C)C(=O)c1ccc(N(C)C)cc1; 0.166 µM (active)

Field: next compound
Notebook: "COc1cccc2c1C(=O)c1c(O)c3c(c(O)c1C2=O)C[C@@](O)(C(C)=O)C[C@H]3O[C@H]1C[C@H](N)[C@H](O)[C@H](C)O1" , Potency read as 0.0469 µM (active)

====

system: WaGa; assay: qHTS assay to identify novel small-molecules to repurpose for Merkel cell carcinoma treatment (AID 1296009); conditions: MCC and control cell lines, CellTiter-Glo viability, 72 h; series mostly up to 46 µM; note: nearly all actives have a fitted effect of over 60% in size
Records with an inconclusive call do not appear. The source made the active and inactive calls. The call rests on the fitted dose curve; in most records, active means well fitted inhibition curve with a large enough effect; inconclusive means small, poorly fitted or top-dose-only effect; inactive means flat fitted curve, though single readings scatter.
The reply should be one of these categories: active, inactive

For orientation, consider the following solved cases.
CN1CCc2c(c3ccccc3n2Cc2ccc(C(=O)NO)cc2)C1; active
O=S(=O)(O)CCSSCCS(=O)(=O)O; inactive
Cn1cc(-c2ccc3ncc(Cc4ccc5ncccc5c4)n3n2)cn1; inactive
O=C1c2c(O)cccc2[C@@H]([C@@H]2O[C@H](CO)[C@@H](O)[C@H](O)[C@H]2O)c2cc(CO)cc(O)c21; inactive
CC1(C)O[C@@H]2C[C@H]3[C@@H]4CCC5=CC(=O)C=C[C@]5(C)[C@@H]4[C@@H](O)C[C@]3(C)[C@]2(C(=O)CO)O1; inactive

Inquiry: Returns: the outcome recorded for "O=C(CCCCCCC(=O)Nc1cccnc1)NO" in this assay.
Reply text: active
